test system: Staph.aureus SG511; experiment: agar dilution test (MIC); assay type: cell-based; settings: Staphylococcus aureus, Mueller Hinton agar, 16 to 18 hours at 37°C, read-out: Minimum Inhibitory Concentration (MIC)
Property: MIC; scope: individual compounds
# include the unit after the value

Some compounds with recorded MIC:
CC(O)C1C(=O)N2C(C(=O)O)=C(c3ccc(C(N)=O)cc3)SC12 (stereo not shown)
0.05 µg/mL
C[C@@H](O)[C@H]1C(=O)N2C(C(=O)O)=C(c3cccc(NC=O)c3)S[C@H]12
0.1 µg/mL
C[C@@H](O)[C@H]1C(=O)N2C(C(=O)O)=C(c3ccc(NC=O)cc3)S[C@H]12
0.05 µg/mL

Consider now this further compound.
Lab entry: Staph.aureus SG511 assay, compound "COc1ccc(C2=C(C(=O)O)N3C(=O)[C@H]([C@@H](C)O)[C@H]3S2)cc1" , MIC = 0.1 µg/mL
